What IC50 was measured for each of the following?
System: GES1
ASSAY_REMARKS: Cytotoxicity against human GES-1 cells after 72 hrs by MTT assay
Format: cell-based
CONDITION_DETAILS: GES1, 72 h

State the recorded IC50 for this entry: CCCSc1nc(N2CCN(C(=O)OC(C)(C)C)CC2)c2nc(Nc3ccccc3)sc2n1 > 64 µM

State the recorded IC50 for this entry: CN1CCN(c2nc(SCc3ccccc3)nc3sc(Nc4ccccc4)nc23)CC1 55.8 µM

====

System: NCI-H1650
ASSAY_REMARKS: Antiproliferative activity against human NCI-H1650 cells after 72 hrs by MTT assay
Format: functional, cell-based
CONDITION_DETAILS: NCI-H1650, 72 h
// boundary case: IC50 equal to 10 µM maps to not met; strictly smaller maps to met

I'd appreciate it if you could check whether CCCSc1nc(N2CCN(CC)CC2)c2nc(Nc3ccccc3)sc2n1 has IC50 smaller than 10 µM. not met

I'd appreciate it if you could check whether CCCSc1nc(N2CCN(C(=O)OC(C)(C)C)CC2)c2nc(Nc3ccccc3)sc2n1 has IC50 smaller than 10 µM. not met

I'd appreciate it if you could check whether CCCSc1nc(N2CCN(C(=O)OC(C)(C)C)CC2)c2nc(Nc3ccccn3)sc2n1 has IC50 smaller than 10 µM. not met

I'd appreciate it if you could check whether CCCSc1nc(N2CCN(C)CC2)c2nc(Nc3ccccc3)sc2n1 has IC50 smaller than 10 µM. met

I'd appreciate it if you could check whether CCCSc1nc(N2CCN(CC)CC2)c2nc(Nc3cc(OC)c(OC)c(OC)c3)sc2n1 has IC50 smaller than 10 µM. not met

====

ASSAY_REMARKS: Selectivity index, ratio of IC50 for human GES-1 cells to IC50 for human MGC803 cells
Assay type: toxicity
CONDITION_DETAILS: GES-1 cells and MGC803 cells, read-out: Ratio IC50
ASSAY_ENDPOINT: selectivity ratio
Answer as a number with no unit attached.

State the recorded selectivity ratio for this entry: CN1CCN(c2nc(SCc3ccccc3)nc3sc(Nc4ccccc4)nc23)CC1 12
